assayed system: T1, human CD123 (IL-3Rα, interleukin-3 receptor alpha chain) (human, UniProt P26951 19-378)
T1 construct: CD123 on human cell lines (TF-1, HNT-34, MOLM-13 and other AML, B-ALL, CML and NHL lines) or on 300-19 cells stably expressing human CD123; also called CD123 antigen; human CD123 antigen
T1 sequence (P26951 19-378): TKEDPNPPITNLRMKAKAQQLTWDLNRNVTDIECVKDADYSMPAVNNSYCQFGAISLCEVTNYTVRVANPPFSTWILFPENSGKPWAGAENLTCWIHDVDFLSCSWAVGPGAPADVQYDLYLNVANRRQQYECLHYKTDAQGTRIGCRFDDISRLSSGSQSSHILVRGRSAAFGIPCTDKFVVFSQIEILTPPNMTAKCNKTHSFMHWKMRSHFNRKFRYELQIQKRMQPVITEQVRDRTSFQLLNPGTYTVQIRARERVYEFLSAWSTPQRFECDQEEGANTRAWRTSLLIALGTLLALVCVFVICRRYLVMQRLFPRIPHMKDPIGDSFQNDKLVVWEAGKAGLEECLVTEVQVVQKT
method summary: flow cytometry on HNT-34 cells; apparent Kd
readout kind: pKd
A value of pKd is the negative decimal logarithm of a concentration given in moles per litre.

Lookup result for chCD123-14 (antibody, V domains shown, also called chimeric CD123-14 antibody) VH: EVKLVESGGDLVKPGGSLKLSCAASGFTFSNYAMSWVRQNSEKRLEWVATINSGGSFTYYPDSVKGRFTISRDNAKDSLYLQMSSLNSEDTAMYYCARQSEAYYGYDKRTWFAYWGQGTLVTVSS VL: DILLTQSPAILSVSPGTRVSFSCRASQSVGTSIHWYQQRPNGFPRLLIKYASESISGIPSRFSGSGSGTDFTLNINSVESEDIADYYCQQSKSWPLTFGAGTKLELKR ; measured pKd: 9.70

Lookup result for chCD123-3 (antibody, human IgG1, V domains shown, human IgG1 and Kappa are spelled out for chCD123-6 and the same vectors and constant regions were used; also called chimeric CD123-3 antibody) VH: EFQLQQSGPEVVKPGASVKMSCKASGYTFTSYVMHWMKQKPGQGLEWIGYIKPYKDGTKYNEKFKGKATLISDKPSSTAYMELSSLTSEDSAVYYCAREGENGYYDAMDYWGQGTSVTVSS VL: DIQMTQSPSSLSASLGGKVTITCKASQDINKYIAWYQHKPGKGPRLLIHYTSTLQPGIPSRFSGSGSGRDYSFSISNLEPEDIATYYCLQYDNLLYTFGGGTKLELKR ; measured pKd: 10.00
